- System: PMA-differentiated THP-1 cells
- Protocol Notes: IL-1β production in PMA-differentiated THP-1 cells stimulated with gramicidin (hTHP-1 assay containing 2% fetal bovine serum; Procedures 1 and 2)
- Assay type: cell-based, human
- Test Parameters: Homo sapiens, THP-1, Table B2; 2% fetal bovine serum; class symbols; read-out: hTHP-1 IC50
Measured Attribute: IC50

Some solved entries appear below for comparison.
| Molecule | Tested On | IC50 |
| --- | --- | --- |
| CNS(=O)(=O)c1cccc(S(N)(=O)=NC(=O)Nc2c3c(nc4c2CCC4(C)C)CCC3)c1 (centres unmarked) | PMA-differentiated THP-1 cells | 1 to 5 µM |
| Cc1c(C2(F)CC2)nc2c(c1NC(=O)N=S(N)(=O)c1cc(C(C)(C)O)cs1)CCC2 (centres unmarked) | PMA-differentiated THP-1 cells | 1 to 5 µM |
| CC(C)(O)c1ncc(S(N)(=O)=NC(=O)Nc2nc3c(c4c2CCC4)CCC3)s1 (centres unmarked) | PMA-differentiated THP-1 cells | 1 to 5 µM |
| CC(C)n1nc(S(N)(=O)=NC(=O)Nc2c3c(nc4c2CCC4(C)C)CCC3)cc1CO (centres unmarked) [Compound 652] | PMA-differentiated THP-1 cells | 1 to 5 µM |
| Cc1c(C2(C)CC2)nc2c(c1NC(=O)N=S(N)(=O)c1cnc(C(C)(C)O)s1)CCC2 (centres unmarked) | PMA-differentiated THP-1 cells | 5 to 30 µM |

q: Supply reported IC50 belonging to this molecule: CCn1ccc([S@@](N)(=O)=NC(=O)Nc2c3c(nc4c2CCC42CC2)CCC3)n1 [Compound 604a]
a: 5 to 30 µM

q: Supply reported IC50 belonging to this molecule: Cc1c(C2CC2)nc2c(c1NC(=O)N=S(N)(=O)c1sc(C(C)(C)O)nc1CO)CCC2 (centres unmarked)
a: 5 to 30 µM

q: Supply reported IC50 belonging to this molecule: CC(C)(O)c1csc(S(N)(=O)=NC(=O)Nc2cc(CC(F)(F)F)nc3c2CCC3)c1 (centres unmarked) [Compound 607]
a: 1 to 5 µM

* * *

- Tested on: PMA-differentiated THP-1 cells
- Protocol Notes: IL-1β production in PMA-differentiated THP-1 cells stimulated with gramicidin (hTHP-1 assay containing 2% fetal bovine serum; Procedures 1 and 2)
- Type: cell-based, human
- Test Parameters: Homo sapiens, THP-1, Table B2; 2% fetal bovine serum; class symbols; read-out: hTHP-1 IC50
Measured Attribute: IC50

Some solved entries appear below for comparison.
| Compound | Tested On | IC50 |
| --- | --- | --- |
| CC(C)c1c(C2CC2)nc2c(c1NC(=O)N=S(N)(=O)c1cc(C(C)(C)O)cs1)CCC2 (stereo not shown) | PMA-differentiated THP-1 cells | 200 to 1000 nM |
| C[C@@H]1CCc2c1nc1c(c2NC(=O)N=S(N)(=O)c2sc(CN(C)C)cc2F)CCC1 (stereo partly shown) [Compound 636c] | PMA-differentiated THP-1 cells | 200 to 1000 nM |
| NS(=O)(=NC(=O)Nc1c2c(nc3c1CCC3)CCC2)c1ccn(CC(F)(F)F)n1 (stereo not shown) [Compound 685] | PMA-differentiated THP-1 cells | 1000 to 5000 nM |
| CC(C)c1nc2c(cc1NC(=O)N=[S@](N)(=O)c1cnc(C(C)(C)O)s1)CCC2 [Compound 601a] | PMA-differentiated THP-1 cells | 200 to 1000 nM |

q: Supply reported IC50 belonging to this compound: CC(C)(O)c1ccc(S(N)(=O)=NC(=O)Nc2c3c(nc4c2CCC4(C)C)CCC3)cn1 (stereo not shown) [Compound 673]
a: 5000 to 30000 nM

q: Supply reported IC50 belonging to this compound: CCC1CCc2c1nc1c(c2NC(=O)N=S(N)(=O)c2ccn(C(F)F)n2)CCC1 (single isomer, unassigned) [Compound 668c]
a: 5000 to 30000 nM

q: Supply reported IC50 belonging to this compound: CCn1ccc([S@@](N)(=O)=NC(=O)Nc2c(C)c(C(F)(F)F)nc3c2CCC3)n1 [Compound 731a]
a: 5000 to 30000 nM

* * *

- System: PMA-differentiated THP-1 cells
- Protocol Notes: IL-1β production in PMA-differentiated THP-1 cells stimulated with gramicidin (hTHP-1 assay containing 2% fetal bovine serum; Procedures 1 and 2)
- Assay type: cell-based, human
- Test Parameters: Homo sapiens, THP-1, Table B2; 2% fetal bovine serum; class symbols; read-out: hTHP-1 IC50
pIC50: −log10 of the molar value.
Measured Attribute: pIC50

Some solved entries appear below for comparison.
| Compound | Tested On | pIC50 |
| --- | --- | --- |
| C[C@@H]1CCc2c1nc1c(c2NC(=O)N=S(N)(=O)c2nn(C(F)F)cc2F)CCC1 (stereo partly shown) [Compound 718a] | PMA-differentiated THP-1 cells | 6.70 to 7.40 |
| Cc1c(C2(C)CC2)nc2c(c1NC(=O)N=S(N)(=O)c1cc(C(C)(C)O)cs1)CCC2 (stereo not shown) [Compound 669] | PMA-differentiated THP-1 cells | 4.52 to 5.30 |
| CC(C)(O)c1cccc(S(N)(=O)=NC(=O)Nc2c3c(nc4c2CCC4)CCC3)c1 (stereo not shown) [Compound 625] | PMA-differentiated THP-1 cells | 4.52 to 5.30 |
| Cc1c(C(C)(C)C)nc2c(c1NC(=O)N=S(N)(=O)c1cc(C(C)(C)O)cs1)CCC2 (single isomer, unassigned) [Compound 657b] | PMA-differentiated THP-1 cells | 4.52 to 5.30 |
| CC(C)(O)c1scc(S(N)(=O)=NC(=O)Nc2c3c(nc4c2CCC4)CCC3)c1F (single isomer, unassigned) [Compound 701a] | PMA-differentiated THP-1 cells | 4.52 to 5.30 |

q: Supply reported pIC50 belonging to this compound: CC(C)(O)c1sc(S(N)(=O)=NC(=O)Nc2c3c(nc4c2CCC4)CCC3)cc1F (single isomer, unassigned) [Compound 678a]
a: 5.30 to 6.00

q: Supply reported pIC50 belonging to this compound: CC1(C)CCc2c1nc1c(c2NC(=O)N=S(N)(=O)c2ccn(-c3ccccc3)n2)CCC1 (stereo not shown)
a: 5.30 to 6.00

q: Supply reported pIC50 belonging to this compound: CCn1ccc(S(N)(=O)=NC(=O)Nc2c(C)c(C(F)(F)F)nc3c2CCC3)n1 (stereo not shown)
a: 5.30 to 6.00

q: Supply reported pIC50 belonging to this compound: Cc1c(C(F)(F)F)nc2c(c1NC(=O)N=S(N)(=O)c1cnc(C(C)(C)O)s1)CCC2 (stereo not shown)
a: 5.30 to 6.00

q: Supply reported pIC50 belonging to this compound: C[C@@H]1CCc2c1nc1c(c2NC(=O)N=S(N)(=O)c2ccn(C(C)(F)F)n2)CCC1 (stereo partly shown) [Compound 723c]
a: 6.00 to 6.70

q: Supply reported pIC50 belonging to this compound: Cc1c(C(F)F)nc2c(c1NC(=O)N=S(N)(=O)c1cnc(C(C)(C)O)s1)CCC2 (stereo not shown) [Compound 647]
a: 5.30 to 6.00

q: Supply reported pIC50 belonging to this compound: CC(C)(O)c1cc(Br)c(S(N)(=O)=NC(=O)Nc2c3c(nc4c2CCC4)CCC3)s1 (stereo not shown) [Compound 690]
a: 5.30 to 6.00

q: Supply reported pIC50 belonging to this compound: Cc1c(CO)nc2c(c1NC(=O)N=S(N)(=O)c1cnc(C(C)(C)O)s1)CCC2 (stereo not shown)
a: 4.52 to 5.30

q: Supply reported pIC50 belonging to this compound: CC1(C)CCc2c1nc1c(c2NC(=O)N=S(N)(=O)c2cnc(C(C)(CO)CO)s2)CCC1 (stereo not shown)
a: 6.00 to 6.70

q: Supply reported pIC50 belonging to this compound: CC(C)(O)c1cc(S(N)(=O)=NC(=O)Nc2c3c(nc4c2CCC4(C)C)CCC3)nn1-c1ccccc1 (single isomer, unassigned) [Compound 663b]
a: 5.30 to 6.00

q: Supply reported pIC50 belonging to this compound: CC(C)(O)c1csc(S(N)(=O)=NC(=O)Nc2cc(C3CC3)nc3c2CCC3)c1 (single isomer, unassigned) [Compound 176b]
a: 5.30 to 6.00

q: Supply reported pIC50 belonging to this compound: CC1(C)CCc2c1nc1c(c2NC(=O)N=S(N)(=O)c2cnn(C(F)F)c2)CCC1 (stereo not shown) [Compound 637]
a: 4.52 to 5.30

q: Supply reported pIC50 belonging to this compound: CC(C)(O)c1ncc(S(N)(=O)=NC(=O)Nc2c3c(nc4c2CCC4C(=O)O)CCC3)s1 (stereo not shown)
a: 4.52 to 5.30

q: Supply reported pIC50 belonging to this compound: CC1(C)CCc2c1nc1c(c2NC(=O)N=S(N)(=O)c2cnn3c2OCCC3)CCC1 (single isomer, unassigned) [Compound 304b]
a: 5.30 to 6.00
